molecular target: human recombinant HDAC6 (Homo sapiens); construct: purchased Calbiochem Inc. 382180; experiment: HDAC6 enzyme activity inhibition (HDAC Fluorimetric Drug Discovery Kit); type: biochemical; conditions: HDAC6 over HDAC1
Sequence (Q9UBN7 whole entry): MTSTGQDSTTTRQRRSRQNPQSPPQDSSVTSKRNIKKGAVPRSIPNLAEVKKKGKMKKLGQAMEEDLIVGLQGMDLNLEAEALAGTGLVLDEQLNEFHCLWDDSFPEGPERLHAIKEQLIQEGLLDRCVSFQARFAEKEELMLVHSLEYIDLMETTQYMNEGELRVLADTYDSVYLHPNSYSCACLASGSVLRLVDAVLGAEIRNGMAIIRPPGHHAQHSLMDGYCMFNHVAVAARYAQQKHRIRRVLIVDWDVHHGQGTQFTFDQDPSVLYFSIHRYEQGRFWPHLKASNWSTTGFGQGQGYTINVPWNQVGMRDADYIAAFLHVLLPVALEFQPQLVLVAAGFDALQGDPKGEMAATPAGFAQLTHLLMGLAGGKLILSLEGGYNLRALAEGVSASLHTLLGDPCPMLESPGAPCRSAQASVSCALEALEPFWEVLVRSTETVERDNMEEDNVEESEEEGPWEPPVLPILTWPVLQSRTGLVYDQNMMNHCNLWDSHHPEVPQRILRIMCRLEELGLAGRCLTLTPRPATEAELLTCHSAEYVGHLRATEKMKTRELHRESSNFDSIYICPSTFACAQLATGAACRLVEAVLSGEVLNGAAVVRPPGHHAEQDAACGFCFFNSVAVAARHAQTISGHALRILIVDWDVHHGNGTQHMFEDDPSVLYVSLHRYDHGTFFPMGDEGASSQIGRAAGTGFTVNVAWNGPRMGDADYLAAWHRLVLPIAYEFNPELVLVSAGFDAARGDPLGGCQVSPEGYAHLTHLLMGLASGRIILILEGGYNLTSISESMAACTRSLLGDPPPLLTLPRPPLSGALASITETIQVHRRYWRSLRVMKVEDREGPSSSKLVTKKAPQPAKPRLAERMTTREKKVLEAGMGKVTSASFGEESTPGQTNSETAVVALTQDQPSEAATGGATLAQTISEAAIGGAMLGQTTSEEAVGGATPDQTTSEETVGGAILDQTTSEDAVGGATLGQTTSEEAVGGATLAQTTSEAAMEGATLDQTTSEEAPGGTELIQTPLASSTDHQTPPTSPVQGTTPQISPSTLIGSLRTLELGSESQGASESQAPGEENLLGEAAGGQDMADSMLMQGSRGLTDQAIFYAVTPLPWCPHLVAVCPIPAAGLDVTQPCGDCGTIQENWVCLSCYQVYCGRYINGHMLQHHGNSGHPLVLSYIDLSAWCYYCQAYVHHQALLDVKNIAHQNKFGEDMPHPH
I would appreciate it if you labelled entries true when HDAC6 selectivity (fold) is 800 fold or higher, otherwise false.

>>> assigned_category("FC(F)c1nnc(-c2ccc(Cn3cc(-c4ccc(CNC5CCC5)cc4)nn3)nc2)o1 [Compound 4565]")
"true"
>>> assigned_category("Fc1c(-c2cn(Cc3ccc(-c4nnc(C(F)F)o4)cn3)nn2)cccc1N1CCN(CC2CC(F)(F)C2)CC1 [Compound 4601]")
"true"
>>> assigned_category("CC(C)(C)OC(=O)N1CC(N2CCC(c3cccc(-c4cn(Cc5ncc(-c6nnc(C(F)F)o6)cc5F)nn4)c3)CC2)C1 [Compound 18872]")
"false"
>>> assigned_category("CN(C)Cc1ccc(-c2cn(Cc3ncc(-c4nnc(C(F)F)o4)cc3F)nn2)cc1F [Compound 18949]")
"false"
>>> assigned_category("CN1Cc2ccc(-c3cn(Cc4ccc(-c5nnc(C(F)F)o5)cn4)nn3)cc2C1 [Compound 4540]")
"false"
>>> assigned_category("CCN1Cc2cccc(-c3cn(Cc4ccc(-c5nnc(C(F)F)o5)cc4F)nn3)c2C1 [Compound 4535]")
"false"
>>> assigned_category("CCN1CCN(c2cccc(-c3cn(Cc4ccc(-c5nnc(C(F)F)o5)cc4F)nn3)n2)CC1 [Compound 17362]")
"true"
>>> assigned_category("Fc1cc(-c2nnc(C(F)F)o2)ccc1Cn1cc(-c2ccc(CN3CCCC3)nc2)nn1 [Compound 18175]")
"true"
>>> assigned_category("Fc1cc(-c2nnc(C(F)F)o2)ccc1Cn1cc(-c2ccc(CN3CCC3)s2)nn1 [Compound 17912]")
"true"
>>> assigned_category("Fc1cc(-c2nnc(C(F)F)o2)ccc1Cn1cc(-c2ccc(CN3CCC3)c(Cl)c2)nn1 [Compound 18712]")
"true"
>>> assigned_category("FC(F)c1nnc(-c2ccc(Cn3cc(-c4cnc5[nH]ccc5c4)nn3)cc2)o1 [Compound 4525]")
"true"
>>> assigned_category("Fc1c(-c2cn(Cc3ccc(-c4nnc(C(F)F)o4)cn3)nn2)cccc1N1CCN(CC2(F)CC2)CC1 [Compound 4600]")
"true"
>>> assigned_category("Fc1cc(-c2nnc(C(F)F)o2)ccc1Cn1cc(-c2ccc3c(c2)CN(C2CCOCC2)C3)nn1 [Compound 17458]")
"false"
>>> assigned_category("CC(C)N1CC(c2cccc(-c3cn(Cc4ccc(-c5nnc(C(F)F)o5)cn4)nn3)c2)C1 [Compound 4503]")
"true"
>>> assigned_category("CN(C)C1CCN(Cc2ccc(-c3cn(Cc4ccc(-c5nnc(C(F)F)o5)cn4)nn3)cc2)CC1 [Compound 4564]")
"true"
